- Experimental protocol: Toxicity in mouse at 400 mg/kg, ip
- Format: organism-based
- Design: dose 400 mg/kg, route intraperitoneal
- Applied conditions: in vivo
Measured property: MTD (mg/kg)
Report the value in mg/kg with no unit label.

Any idea what its MTD is? The compound is O=C1C(NCc2ccccc2)=CC2=NCCn3cnc1c32
12.5
